- system: NDM-1 (Klebsiella pneumoniae, UniProt C7C422)
- Sequence (C7C422 29-270 limits assumed): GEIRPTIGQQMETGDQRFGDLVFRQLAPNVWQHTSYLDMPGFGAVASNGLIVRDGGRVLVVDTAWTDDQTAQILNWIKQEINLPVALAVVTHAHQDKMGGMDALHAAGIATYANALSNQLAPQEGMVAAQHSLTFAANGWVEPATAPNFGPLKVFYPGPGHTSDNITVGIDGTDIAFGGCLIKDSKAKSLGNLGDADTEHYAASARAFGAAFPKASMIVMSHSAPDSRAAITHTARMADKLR
- assay.protocol: Spectrophotometric direct competition assay, imipenem hydrolysis (reporter substrate)
- cond: competitive model, imipenem reporter substrate; read-out: K i NDM-1
measure: pKi
Field pKi (float): negative decimal logarithm of the concentration in molar.

compound: C[C@H](CS)C(=O)N1c2ccccc2C2(CCCCC2)[C@H]1C(N)=O [6e]
measured.number: 5.70

compound: CCC1(CC)c2ccccc2N(C(=O)[C@H](C)CS)[C@H]1C(N)=O [6d]
measured.number: 5.59

# input Would you mind telling me what pKi value was observed for C[C@H](CS)C(=O)N1c2ccccc2C2(CCCCC2)[C@@H]1C(N)=O [6f] ?
# output 5.68

# input GET /values?readout=pKi&item= CCC1(CC)c2ccccc2N(C(=O)[C@H](C)CS)[C@@H]1C(N)=O [6c]
# output 5.35
